# System: Mycolicibacterium smegmatis
# run.description: Antimycobacterial activity against PknGMsm-deficient Mycobacterium smegmatis harboring PknG Mtb gene by Etest method
# Type: functional
The entries below come with measured MIC values attached.

| molecule | MIC |
| --- | --- |
| CC[C@@H](CO)NCCN[C@@H](CC)CO | 0.25 µg/mL |
| CN[C@H](CC(C)C)C(=O)N[C@H]1C(=O)N[C@@H](CC(N)=O)C(=O)N[C@H]2C(=O)N[C@H]3C(=O)N[C@H](C(=O)N[C@H](C(=O)O)c4cc(O)cc(O)c4-c4cc3ccc4O)[C@H](O)c3ccc(c(Cl)c3)Oc3cc2cc(c3O[C@@H]2O[C@H](CO)[C@@H](O)[C@H](O)[C@H]2O[C@H]2C[C@](C)(N)[C@H](O)[C@H](C)O2)Oc2ccc(cc2Cl)[C@H]1O | 48 µg/mL |
| CO[C@H]1/C=C/O[C@@]2(C)Oc3c(C)c(O)c4c(O)c(c(/C=N/N5CCN(C)CC5)c(O)c4c3C2=O)NC(=O)/C(C)=C\C=C\[C@H](C)[C@H](O)[C@@H](C)[C@@H](O)[C@@H](C)[C@H](OC(C)=O)[C@@H]1C | > 32 µg/mL |
| C[C@@H](O)[C@H]1C(=O)N2C(C(=O)O)=C(SCCNC=N)C[C@H]12 [IMIPENEM ANHYDROUS] | 6 µg/mL |
| CC[C@H]1OC(=O)[C@H](C)[C@@H](O[C@H]2C[C@@](C)(OC)[C@@H](O)[C@H](C)O2)[C@H](C)[C@@H](O[C@@H]2O[C@H](C)C[C@H](N(C)C)[C@H]2O)[C@](C)(O)C[C@@H](C)C(=O)[C@H](C)[C@@H](O)[C@]1(C)O | 32 µg/mL |
